Catalogue of binders with associated CD8 EC50 (nM), STAT5 phosphorylation
# study.system: T1, IL-2R on human primary T cells (human, UniProt P01589 22-272; P14784 27-551; P31785 23-369)
# T1 sequence (looked up) 1: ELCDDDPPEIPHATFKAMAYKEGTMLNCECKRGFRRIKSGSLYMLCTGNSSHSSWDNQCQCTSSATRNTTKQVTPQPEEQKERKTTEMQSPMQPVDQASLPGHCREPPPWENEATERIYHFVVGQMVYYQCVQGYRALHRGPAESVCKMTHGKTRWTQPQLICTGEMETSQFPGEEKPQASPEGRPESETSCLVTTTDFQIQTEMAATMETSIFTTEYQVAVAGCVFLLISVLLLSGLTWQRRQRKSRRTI
# T1 sequence (looked up) 2: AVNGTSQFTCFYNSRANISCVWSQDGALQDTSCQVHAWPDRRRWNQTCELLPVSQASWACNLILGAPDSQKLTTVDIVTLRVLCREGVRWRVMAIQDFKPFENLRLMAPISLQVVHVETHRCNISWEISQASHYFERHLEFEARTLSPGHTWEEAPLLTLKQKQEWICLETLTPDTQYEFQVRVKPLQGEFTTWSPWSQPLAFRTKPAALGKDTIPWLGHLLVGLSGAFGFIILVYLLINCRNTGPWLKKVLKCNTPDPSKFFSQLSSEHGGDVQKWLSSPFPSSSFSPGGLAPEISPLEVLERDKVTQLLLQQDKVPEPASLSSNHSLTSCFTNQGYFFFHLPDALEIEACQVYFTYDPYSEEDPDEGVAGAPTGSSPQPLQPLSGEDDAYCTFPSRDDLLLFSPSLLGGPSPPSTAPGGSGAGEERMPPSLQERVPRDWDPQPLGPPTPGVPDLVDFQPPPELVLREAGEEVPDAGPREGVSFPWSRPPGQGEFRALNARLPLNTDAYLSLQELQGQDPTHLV
# T1 sequence (looked up) 3: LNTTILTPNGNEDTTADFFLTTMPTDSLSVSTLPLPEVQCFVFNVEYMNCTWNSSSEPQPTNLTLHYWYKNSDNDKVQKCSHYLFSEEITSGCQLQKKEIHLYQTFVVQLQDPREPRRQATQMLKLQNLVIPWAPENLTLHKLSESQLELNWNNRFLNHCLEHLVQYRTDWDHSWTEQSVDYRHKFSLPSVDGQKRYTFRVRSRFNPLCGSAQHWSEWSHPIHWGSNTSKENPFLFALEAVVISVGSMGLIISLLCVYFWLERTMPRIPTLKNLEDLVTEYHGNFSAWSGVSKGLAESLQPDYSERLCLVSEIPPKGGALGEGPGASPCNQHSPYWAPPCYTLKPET
# assay.procedure: cell-based or functional assay
measured.property: CD8 EC50 (nM), STAT5 phosphorylation

binder	reading
SEQ ID NO 32 (ligand) APTSSSTKKTQLQLEHLLLDLQMILNGINNYKNPKLTRMLTFKFYMPKKATELKHLQCLEEELKPLEEALNLAQSKNFHLRPRDLISDINVIVLELKGSETTFMCEYADETATIVEFLNRWITFSQSIISTLT	10000
SEQ ID NO 13 (ligand) APTSSSTKKTQLQLEHLLLDLQMILNGINNHKNPRLTRMLTFKFYMPKKATELKHLQCLEEELKPLEEALRLAPSKNFHLRPRDLISDINVIVLELKGSETTFMCEYADETATIVEFLNRWITFSQSIISTLT	8650
SEQ ID NO 27 (ligand) APTSSSTKKTQLQLEHLLLDLQMILNGINNHKNPRLTRMLTFKFYMPKKATELKHLQCLEEELKPLEEVLRLAPSKNFHLRPRDLISNINVIVLELKGSETTFMCEYADETATIVEFLNRWITFSTSIISTLT	10000
